- Target entity: Glutamate receptor ionotropic, kainate 5 (Homo sapiens)
- Sequence (Q16478 whole entry): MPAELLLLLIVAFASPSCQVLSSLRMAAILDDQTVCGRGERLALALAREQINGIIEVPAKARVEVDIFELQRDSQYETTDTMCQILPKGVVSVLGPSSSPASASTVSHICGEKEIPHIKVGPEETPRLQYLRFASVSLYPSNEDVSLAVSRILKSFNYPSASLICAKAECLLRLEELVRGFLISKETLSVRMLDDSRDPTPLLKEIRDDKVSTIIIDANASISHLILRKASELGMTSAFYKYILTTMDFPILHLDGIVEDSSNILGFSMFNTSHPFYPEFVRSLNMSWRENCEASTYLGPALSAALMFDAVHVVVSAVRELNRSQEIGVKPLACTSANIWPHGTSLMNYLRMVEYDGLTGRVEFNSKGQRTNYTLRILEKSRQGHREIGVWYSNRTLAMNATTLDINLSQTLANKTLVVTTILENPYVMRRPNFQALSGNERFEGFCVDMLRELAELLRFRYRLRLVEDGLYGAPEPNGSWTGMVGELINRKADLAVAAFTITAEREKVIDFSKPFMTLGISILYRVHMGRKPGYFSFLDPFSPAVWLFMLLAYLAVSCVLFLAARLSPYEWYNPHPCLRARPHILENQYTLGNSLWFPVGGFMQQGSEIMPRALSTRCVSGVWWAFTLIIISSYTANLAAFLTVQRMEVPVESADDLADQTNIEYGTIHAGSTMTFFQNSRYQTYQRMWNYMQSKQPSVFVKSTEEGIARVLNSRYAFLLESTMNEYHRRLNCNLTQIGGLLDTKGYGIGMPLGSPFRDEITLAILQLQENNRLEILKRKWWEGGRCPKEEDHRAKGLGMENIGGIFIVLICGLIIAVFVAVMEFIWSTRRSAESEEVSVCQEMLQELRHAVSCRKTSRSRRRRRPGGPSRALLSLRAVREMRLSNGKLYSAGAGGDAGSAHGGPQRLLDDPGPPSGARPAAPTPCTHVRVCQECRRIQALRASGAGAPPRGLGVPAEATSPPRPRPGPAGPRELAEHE
- Assay procedure: Displacement of [3H]-kainate from human recombinant GluK5 receptor expressed in HEK293 cell membranes after 60 mins
pKi: −log10 of the molar value.
Measured metric: pKi

O=C(O)[C@@H]1C[C@H]2C[C@@H](CN3CC(F)(F)C[C@H]3C(=O)O)CC[C@H]2CN1 = 5.05

---

- Target entity: Glutamate receptor ionotropic, kainate 1 (Rattus norvegicus, UniProt P22756)
- Sequence (P22756 whole entry): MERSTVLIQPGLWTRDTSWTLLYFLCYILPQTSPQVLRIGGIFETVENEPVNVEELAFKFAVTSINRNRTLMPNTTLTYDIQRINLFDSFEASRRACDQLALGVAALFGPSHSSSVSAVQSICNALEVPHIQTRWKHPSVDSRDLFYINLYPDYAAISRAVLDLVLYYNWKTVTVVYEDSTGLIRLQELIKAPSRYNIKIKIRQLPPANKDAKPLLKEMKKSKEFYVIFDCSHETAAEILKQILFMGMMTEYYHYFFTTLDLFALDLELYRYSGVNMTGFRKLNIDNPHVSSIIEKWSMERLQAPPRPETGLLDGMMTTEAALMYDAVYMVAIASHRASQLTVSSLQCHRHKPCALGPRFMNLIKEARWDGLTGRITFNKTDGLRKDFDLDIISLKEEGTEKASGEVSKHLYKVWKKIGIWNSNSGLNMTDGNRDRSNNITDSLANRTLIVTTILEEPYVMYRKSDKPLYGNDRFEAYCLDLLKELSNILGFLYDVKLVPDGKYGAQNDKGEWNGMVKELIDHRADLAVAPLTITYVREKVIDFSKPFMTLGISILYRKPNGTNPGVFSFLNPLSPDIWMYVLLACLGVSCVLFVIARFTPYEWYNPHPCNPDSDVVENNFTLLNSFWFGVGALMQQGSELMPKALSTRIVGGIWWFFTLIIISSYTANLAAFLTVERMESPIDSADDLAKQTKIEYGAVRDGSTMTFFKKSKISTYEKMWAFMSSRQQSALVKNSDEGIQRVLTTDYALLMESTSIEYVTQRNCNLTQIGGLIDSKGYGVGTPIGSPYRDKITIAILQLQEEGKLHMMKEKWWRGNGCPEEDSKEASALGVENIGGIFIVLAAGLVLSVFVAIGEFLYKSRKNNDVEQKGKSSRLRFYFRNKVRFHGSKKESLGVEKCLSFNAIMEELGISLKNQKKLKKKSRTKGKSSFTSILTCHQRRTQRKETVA
- Assay procedure: Displacement of [3H]-NF608 from rat recombinant GluK1 receptor expressed in baculovirus infected insect Sf9 cell membranes after 60 mins
- Measurement context: read-out: Ki
Measured metric: Ki (µM)

NC(Cc1cc(-c2cccc(C(=O)O)c2)cc([N+](=O)[O-])c1)C(=O)O (racemic) = 32
NC(Cc1ccc([N+](=O)[O-])c(-c2cccc(C(=O)O)c2)c1)C(=O)O (racemic) = 7.2
Nc1c(-c2cccc(C(=O)O)c2)cc(CC(N)C(=O)O)cc1[N+](=O)[O-] (racemic) = 7.5
Nc1ccc(CC(N)C(=O)O)cc1-c1cccc(C(=O)O)c1 (racemic) = 26
